assay: inhibitors of insulin promoter-driven GFP, primary screen, imaging, TRM-6 cells, eGFP reporter, cell count (AID 1273); conditions: at 2 µM
Out of some 130,000 compounds screened, about 1,200 (0.92%) were called active.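 Rule for the calls: active = inhibition above the mean plus 3 SD, with well images judged a real hit on visual review (cut at about 60% in these data, passing the limit was not always enough); inconclusive = inhibition over the cutoff but images rejected on review; inactive = inhibition not above the cutoff.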 The list comes from a sample in which actives are over-represented; it also holds close analogues and randomly drawn compounds.
Use one of these outcomes when replying: YES = active, NO = inactive

Some solved entries appear below for comparison.
| compound | class.label |
| --- | --- |
| CN(C)P(=S)(Nc1ccccc1)C(Cl)(Cl)Cl (stereo not drawn) | NO |
| Cc1ccsc1C(=O)C1CCCN(Cc2ccc(O)cc2)C1 (stereo not drawn) | NO |

# evaluate next
Request: Kindly provide the recorded test outcome for the following compound: CCN(CC)C(=O)c1ccc(NC(=O)c2cc(-n3cnnc3)ccc2Cl)cc1
Result: YES

###

assay: inhibitors of insulin promoter-driven GFP, primary screen, imaging, TRM-6 cells, eGFP reporter, cell count (AID 1273); details: at 2 µM; stronger effect = higher value
Screen size: about 130,000 compounds; about 1,200 (0.92%) were called active. The sample as a whole holds a higher share of actives than the screen did.
observed.property: inhibition (%)
Write the answer as a number in %, unit excluded.

| compound | inhibition [%] |
| --- | --- |
| C=CCN(CC=C)C(=O)Nc1ccc(OCC)cc1 | 36.8 |
| CCOP(=O)(OCC)C(NC(=O)c1ccc(C)cc1)C(Cl)(Cl)Cl (stereo unspecified) | -37.5 |

// moving on: another record for inhibition
Request: Endpoint output: inhibition of O=C(OCCN1CCOCC1)C1(c2ccccc2)CCCC1 . Value?
Result: -36.4

###

assay: inhibitors of insulin promoter-driven GFP, primary screen, imaging, TRM-6 cells, eGFP reporter, cell count (AID 1273); conditions: at 2 µM; measured here: cell count, toxicity;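 for normalized cell count: cells exposed to compound for 48 h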
About 1,200 (0.92%) of roughly 130,000 compounds were called active. The entries come from a sample that favours actives as a whole.
observed.property: normalized cell count (%)
Entry rule: numbers only, all in %.

Request: Recorded normalized cell count of O=C(OCCN1CCOCC1)C1(c2ccccc2)CCCC1 , please.
Result: 95.2

Request: Look up normalized cell count for this compound: CCOP(=O)(OCC)C(NC(=O)c1ccc(C)cc1)C(Cl)(Cl)Cl (configuration not stated)
Result: 107

###

assay: inhibitors of insulin promoter-driven GFP, primary screen, imaging, TRM-6 cells, eGFP reporter, cell count (AID 1273); conditions: at 2 µM; stronger effect = higher value
The campaign covered roughly 130,000 compounds. About 1,200 (0.92%) were called active. The list comes from a sample in which actives are over-represented; it also holds close analogues and randomly drawn compounds.
observed.property: inhibition (%)
Report only the number, with the unit % understood.

Consider the worked cases shown below.
| molecule | unit.symbol | inhibition |
| --- | --- | --- |
| CC(c1ccccc1)(c1ccccc1)c1ccncc1 | % | 27.3 |
| CC(=O)c1ccc(OC(NC(=O)Cc2ccccc2)C(Cl)(Cl)Cl)cc1 (stereo not drawn) | % | -6.45 |

Pending molecule:
Request: Endpoint output: inhibition of COP(=O)(OC)C(NC(=O)c1ccc(C)cc1)C(Cl)(Cl)Cl (stereo not drawn) . Value?
Result: 78.6

###

Reported values of normalized cell count for individual entries
assay: inhibitors of insulin promoter-driven GFP, primary screen, imaging, TRM-6 cells (human fetal islet line), eGFP reporter, cell count (AID 1273); conditions: at 2 µM; measured here: cell count, toxicity
About 1,200 (0.92%) of roughly 130,000 compounds were called active. The sample holds actives, similar compounds and a random draw of the others, so the mix is not that of the screen.
Your answer should be a plain number; it is taken to be in %.

Some entries whose results are on file:
| molecule | unit.symbol | normalized cell count |
| --- | --- | --- |
| CC(=O)c1ccc(OC(NC(=O)Cc2ccccc2)C(Cl)(Cl)Cl)cc1 (stereo not given) | % | 137 |
| CC(c1ccccc1)(c1ccccc1)c1ccncc1 | % | 109 |
| COP(=O)(OC)C(NC(=O)c1ccc(C)cc1)C(Cl)(Cl)Cl (stereo not given) | % | 102 |
| Cc1ccc(-c2nn(CCC#N)cc2C(=O)O)cc1C | % | 85.1 |

Request: Which normalized cell count reading was recorded for the molecule CCN(CC)C(=O)c1ccc(NC(=O)c2cc(-n3cnnc3)ccc2Cl)cc1 ?
Result: 44.7
